Reported inhibition values are given for each entry in this list.
- target: Major prion protein (Mesocricetus auratus)
- assay-text: Inhibition of Syrian hamster prion protein (109-149) aggregation assessed as changes in light scattering at 1 uM by spectrofluorimetric analysis relative to control
measured-property: inhibition (%)

>>> test_value("CN(C)CCNc1ccnc2cc(Cl)ccc12")
82
>>> test_value("CCN(CC)CCNc1ccnc2cc(SC(F)(F)F)ccc12")
54
>>> test_value("Nc1ccnc2cc(Cl)ccc12")
8.4
>>> test_value("CNc1ccnc2cc(Cl)ccc12")
38.6
>>> test_value("NCCNc1ccnc2cc(Cl)ccc12")
7.9
>>> test_value("OCCNc1ccnc2cc(Cl)ccc12")
97
